Origin of the recorded values: patent US20020028938A1

QUANTITY MEASURED: melting point

Some compounds with recorded melting point:
C[Se](=O)(=O)c1ccc(-c2cnn(-c3ccc(F)cc3)c(=O)c2-c2ccc(F)cc2)cc1; 110 to 150 °C
Cc1n[nH]c(=O)c(-c2ccc(F)cc2)c1-c1ccc(S(C)(=O)=O)cc1 [Example 63]; 290 °C (dec.)
CC(C)CCc1c(-c2ccc(S(N)(=O)=O)cc2)cnn(-c2ccc(F)c(Cl)c2)c1=O [Example 405]; 154 to 156 °C

Field: next compound
Which melting point is reported for this compound? CS(=O)(=O)c1ccc(-c2cn[nH]c(=O)c2-c2ccc(F)cc2)cc1 [Example 11]
255 to 256 °C

* * *

biological target: recombinant human Cox-1 (r-hu Cox1) (Homo sapiens); construct: made in house; host or cells: baculovirus/Sf9 insect cells (microsomes); test: Recombinant human PGHS-1 enzyme assay (RHUCX1); format: biochemical; settings: 1 μM; read-out: RHUCX1 % Inh. at Dose
QUANTITY MEASURED: inhibition at 1 µM (%)

P. COc1c(F)cc(-c2c(-c3ccc(S(C)(=O)=O)cc3)cnn(CC(F)(F)F)c2=O)cc1F [Example 220]
Q. Cc1cc(-c2c(-c3ccc(S(N)(=O)=O)cc3)cnn(-c3ccc(F)c(F)c3)c2=O)ccc1F [Example 402]
R. Cc1cc(-c2c(-c3ccc(S(C)(=O)=O)cc3)cnn(-c3ccc(F)c(Cl)c3)c2=O)ccc1F [Example 247]
Which order do these fall in by inhibition at 1 µM? Give them lowest to highest. In your reply, arrange the labels in the requested order.
P, R, Q

* * *

molecular target: recombinant human Cox-1 (r-hu Cox1) (Homo sapiens, UniProt P23219); construct: made in house; host or cells: baculovirus/Sf9 insect cells (microsomes); test: Recombinant human PGHS-1 enzyme assay (RHUCX1); type: biochemical; settings: 100 μM; read-out: RHUCX1 % Inh. at Dose
Sequence (P23219 24-599): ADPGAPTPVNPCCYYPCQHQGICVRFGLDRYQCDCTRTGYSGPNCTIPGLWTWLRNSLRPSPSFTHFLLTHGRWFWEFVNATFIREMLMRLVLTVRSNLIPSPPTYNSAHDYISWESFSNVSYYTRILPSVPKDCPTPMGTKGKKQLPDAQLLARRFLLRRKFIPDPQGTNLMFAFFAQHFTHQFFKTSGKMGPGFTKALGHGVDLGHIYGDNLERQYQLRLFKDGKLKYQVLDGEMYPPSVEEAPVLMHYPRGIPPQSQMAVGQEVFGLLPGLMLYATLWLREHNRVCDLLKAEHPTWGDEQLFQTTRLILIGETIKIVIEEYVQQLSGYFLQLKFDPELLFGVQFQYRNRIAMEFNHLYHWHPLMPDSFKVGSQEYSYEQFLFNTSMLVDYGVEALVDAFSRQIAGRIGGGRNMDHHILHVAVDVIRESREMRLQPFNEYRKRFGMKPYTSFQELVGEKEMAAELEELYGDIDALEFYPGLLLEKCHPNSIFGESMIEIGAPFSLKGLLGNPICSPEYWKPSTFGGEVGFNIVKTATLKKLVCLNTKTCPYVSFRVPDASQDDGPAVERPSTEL
QUANTITY MEASURED: inhibition at 100 µM (%)

CC(C)CCc1c(-c2ccc(S(C)(=O)=O)cc2)cnn(-c2cccc(Cl)c2)c1=O; 0
CSc1cccc(-n2ncc(-c3ccc(S(C)(=O)=O)cc3)c(-c3ccc(F)cc3)c2=O)c1; 35
CS(=O)(=O)c1ccc(-c2cnn(-c3ccc(F)c(Cl)c3)c(=O)c2C2CCCCC2)cc1; 0
NS(=O)(=O)c1ccc(-c2cnn(CC=C(F)F)c(=O)c2-c2ccc(F)cc2)cc1F; 0
COC(C)CCOc1c(-c2ccc(S(C)(=O)=O)cc2)cnn(-c2ccc(F)c(F)c2)c1=O (stereo not shown); 6

1. Cc1ccc(-c2c(-c3ccc(S(C)(=O)=O)cc3)cnn(CC(F)(F)F)c2=O)cc1F
2. CC(C)CCCc1c(-c2ccc(S(C)(=O)=O)cc2)cnn(-c2ccc(F)cc2)c1=O
Please let me know which one, 1 or 2 , has a lower measured inhibition at 100 µM value. Your answer should be the label of the entry you select.
1
(1: 20%, 2: 29%)

* * *

biological target: recombinant human Cox-2 (r-hu Cox-2) (Homo sapiens); construct: made in house; host or cells: baculovirus/Sf9 insect cells (microsomes); assay: Recombinant human PGHS-2 enzyme assay (RHUCX2); type: biochemical; details: 0.01 μM; read-out: RHUCX2 % Inh. at Dose
Sequence (P35354 18-604): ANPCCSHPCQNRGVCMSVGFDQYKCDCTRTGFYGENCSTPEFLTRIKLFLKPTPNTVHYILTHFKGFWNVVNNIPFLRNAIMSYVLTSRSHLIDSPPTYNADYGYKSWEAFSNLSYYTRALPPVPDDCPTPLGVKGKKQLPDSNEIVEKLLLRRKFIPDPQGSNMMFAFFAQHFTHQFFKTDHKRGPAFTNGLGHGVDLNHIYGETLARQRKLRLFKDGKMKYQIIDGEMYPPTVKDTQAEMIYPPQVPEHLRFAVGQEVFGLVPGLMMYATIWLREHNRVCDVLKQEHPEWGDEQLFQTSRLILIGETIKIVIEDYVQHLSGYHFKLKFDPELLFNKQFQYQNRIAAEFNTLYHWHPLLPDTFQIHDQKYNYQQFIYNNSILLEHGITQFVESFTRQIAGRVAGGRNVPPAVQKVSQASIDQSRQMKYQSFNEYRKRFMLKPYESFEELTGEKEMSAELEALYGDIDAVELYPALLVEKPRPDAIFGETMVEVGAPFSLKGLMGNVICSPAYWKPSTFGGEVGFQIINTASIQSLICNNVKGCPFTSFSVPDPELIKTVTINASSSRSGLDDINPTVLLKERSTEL
QUANTITY MEASURED: inhibition at 0.01 µM (%)

Some compounds with recorded inhibition at 0.01 µM:
CC(C)CCc1c(-c2ccc(S(C)(=O)=O)c(F)c2)cnn(-c2ccc(F)c(Cl)c2)c1=O; 26
CS(=O)(=O)c1ccc(-c2cnn(-c3ccc(F)c(Cl)c3)c(=O)c2Cc2cccc(F)c2)cc1; 43
CC(c1cccc(F)c1)n1ncc(-c2ccc(S(N)(=O)=O)cc2)c(-c2ccc(F)cc2)c1=O (centres unmarked); 65

1. CC(C)CCc1c(-c2ccc(S(N)(=O)=O)cc2)cnn(-c2cccc(Cl)c2)c1=O
2. CS(=O)(=O)c1ccc(-c2cnn(Cc3ccc(F)cc3F)c(=O)c2-c2ccc(F)cc2)cc1
Please let me know which one, 1 or 2 , has a lower measured inhibition at 0.01 µM value. Your answer should be the label of the entry you select.
2
(2: 35%, 1: 65%)
